- measured_on: recombinant human LTA4 hydrolase (Homo sapiens)
- assay_comment: LTA4 hydrolase homogeneous time resolved fluorescence (HTRF) assay
- Format: biochemical
- experimental_setup: inhibition of LTA4 to LTB4 hydrolysis; 18 nM enzyme, 150 nM LTA4, 10 minutes; read-out: Hydrolase IC50
- Procedure: Compounds of the invention were tested in the LTA4 hydrolase homogeneous time resolved fluorescence (HTRF) assay to determine their ability to inhibit the hydrolysis of LTA4 to LTB4. The assay analyzes the amount of LTB4 produced. LTA4 HTRF assay is a two-step assay involving enzymatic conversion of LTA4 to LTB4, and subsequent quantification of LTB4, product with HTRF assay. […] Sample LTB4 concentrations were calculated from the LTB4 standard curve using the 4-parameter fit equation. […]
pIC50: −log10 of the molar value.
measured_property: pIC50

COC(=O)C(N)Cc1ccc(Oc2ccc(Cc3ccccc3)cc2)cc1 (centres unmarked) [Example 8]; 6.92
NCc1ccc(OCc2ccc(-c3ccccc3)cc2)cc1 [Example 1]; 6.52
CN(CCOc1ccc(Cc2ccccc2)cc1)Cc1ccccc1Oc1ccc(C(=O)O)cc1 [Example 4]; 7.00

[A] NCc1cccnc1NCCOc1ccc(Cc2ccccc2)cc1 [Example 11]
[B] CCOC(=O)C(N)Cc1ccc(Oc2ccc(Cc3ccccc3)cc2)cc1 (centres unmarked) [Example 9]
Challenge: Form field 'greater pIC50' accepts A or B ; which applies? Write down the label attached to your selection.
Response given: B
(B: 6.89, A: 6.52)

---

- measured_on: recombinant human LTA4 hydrolase (Homo sapiens, UniProt P09960)
- assay_comment: LTA4 hydrolase homogeneous time resolved fluorescence (HTRF) assay
- Format: biochemical
- experimental_setup: inhibition of LTA4 to LTB4 hydrolysis; 18 nM enzyme, 150 nM LTA4, 10 minutes; read-out: Hydrolase IC50
pIC50: −log10 of the molar value.
measured_property: pIC50

[a] NC(CO)Cc1ccc(Oc2ccc(Cc3ccccc3)cc2)cc1 (centres unmarked)
[b] CN(CCOc1ccc(Cc2ccccc2)cc1)Cc1ccccc1Oc1cccc(C(=O)O)c1
Challenge: Between a and b , which one has the lower reported pIC50 value? Give the label under which the chosen entry appears.
Response given: a
(a: 6.59, b: 7.82)

---

Measured IC50 values are reported for all entries that follow.
- measured_on: LTA4 hydrolase peptidase activity (Homo sapiens, UniProt P09960)
- Sequence (P09960 1-611): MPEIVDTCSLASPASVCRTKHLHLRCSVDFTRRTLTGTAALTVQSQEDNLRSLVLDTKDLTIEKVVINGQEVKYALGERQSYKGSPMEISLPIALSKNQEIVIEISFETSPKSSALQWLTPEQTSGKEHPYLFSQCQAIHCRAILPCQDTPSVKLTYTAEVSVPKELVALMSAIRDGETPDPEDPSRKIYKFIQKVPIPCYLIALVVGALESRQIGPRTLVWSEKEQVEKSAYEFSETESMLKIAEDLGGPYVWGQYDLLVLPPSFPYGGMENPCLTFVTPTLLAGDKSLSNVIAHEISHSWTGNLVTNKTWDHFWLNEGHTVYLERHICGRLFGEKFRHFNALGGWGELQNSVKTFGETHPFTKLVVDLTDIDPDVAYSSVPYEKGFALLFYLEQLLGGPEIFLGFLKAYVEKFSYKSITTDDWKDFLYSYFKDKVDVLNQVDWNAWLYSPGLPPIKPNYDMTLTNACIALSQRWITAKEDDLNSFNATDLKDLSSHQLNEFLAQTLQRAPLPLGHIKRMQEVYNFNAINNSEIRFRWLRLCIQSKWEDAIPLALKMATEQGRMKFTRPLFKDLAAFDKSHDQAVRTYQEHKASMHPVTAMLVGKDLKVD
Give just the numeric value; nM need not be written.

So, CN(CCOc1ccc(Cc2ccccc2)cc1)Cc1ccccc1Oc1cccc(C(=O)O)c1 ? Its IC50 was 23

Value of measured IC50 for the entry CN(CCOc1ccc(Cc2ccccc2)cc1)Cc1ccccc1Oc1ccc(C(=O)O)cc1 : 32
